system: human PKK mRNA; experiment: Antisense inhibition of human PKK mRNA in HepaRG cells, 3,000 nM (Example 1); format: cell-based; conditions: Table 4; HepaRG cells, electroporation with 3,000 nM antisense oligonucleotide, approx. 24 hours; PKK mRNA by RT-PCR (RTS3454), relative to untreated control cells
Strand notation (5' to 3'): a small letter for the sugar, then the base; units joined by * are phosphorothioate-linked, units joined directly phosphodiester-linked; [ ] holds rarer units or linkages, { } end groups; capitals alone tell only the bases. e = 2'-O-(2-methoxyethyl) (MOE); [5mC] = 5-methylcytosine; d = 2'-deoxy (DNA)
Each entry falls into one class according to its % inhibition; the ranges are bottom bin (below 20%), middle bin (20% to below 60%), top bin (60% or more)

substance	answerLabel
531161 (antisense e[5mC]*eA*eG*eA*e[5mC]*dA*d[5mC]*d[5mC]*dT*dT*d[5mC]*dT*dT*d[5mC]*dA*e[5mC]*eA*eA*eG*eG) [compound 531161]	middle bin
531215 (eT*eA*eG*eA*eG*dA*dT*dT*dT*dT*dA*dT*dG*dT*dA*e[5mC]*eT*eT*eG*eG; antisense) [compound 531215]	top bin
531174 (antisense eT*eG*eT*eT*eA*dA*dG*dT*dA*dT*dA*dT*dT*dA*dA*e[5mC]*eT*eA*eT*eT) [compound 531174]	bottom bin
531188 (eG*eT*eT*eA*eA*dA*dA*d[5mC]*dA*dA*d[5mC]*dT*dA*dG*dA*eA*eG*e[5mC]*e[5mC]*eA; antisense) [compound 531188]	top bin
531224 (eA*eA*eG*eA*eG*dA*dA*dT*dG*d[5mC]*dT*d[5mC]*dA*dG*dA*eA*eA*eT*eG*eG; antisense) [compound 531224]	middle bin
531169 (antisense eT*eG*eG*eG*e[5mC]*dT*d[5mC]*dA*d[5mC]*d[5mC]*d[5mC]*d[5mC]*dA*dG*dT*eG*eG*eA*e[5mC]*e[5mC]) [compound 531169]	middle bin
531175 (antisense eT*eA*e[5mC]*eT*e[5mC]*dA*dG*dG*dA*dA*dA*dT*dT*dA*dG*eA*eA*eT*eA*eT) [compound 531175]	middle bin
531208 (eT*e[5mC]*e[5mC]*eA*eG*dA*dA*dT*dA*d[5mC]*dT*dG*d[5mC]*d[5mC]*d[5mC]*e[5mC]*eA*eT*e[5mC]*eT; antisense) [compound 531208]	middle bin
531209 (eT*eG*eG*eA*eT*dT*d[5mC]*dA*dT*dT*dT*dT*d[5mC]*dT*dG*e[5mC]*eA*eA*eA*eT; antisense) [compound 531209]	top bin
531221 (eA*eA*eG*eG*eG*dA*dT*dT*dT*dA*dA*dA*dA*dT*dT*eT*eT*eT*eA*eT; antisense) [compound 531221]	bottom bin

---

The entries below are paired with their reported % inhibition.
system: human PKK mRNA; experiment: Antisense inhibition of human PKK mRNA in HepaRG cells, 1,000 nM, MOE/deoxy/cEt oligonucleotides (Example 3); type: cell-based; details: Table 30; human PKK mRNA, HepaRG cells, 1,000 nM antisense oligonucleotide
Strand notation (5' to 3'): a small letter for the sugar, then the base; units joined by * are phosphorothioate-linked, units joined directly phosphodiester-linked; [ ] holds rarer units or linkages, { } end groups; capitals alone tell only the bases. e = 2'-O-(2-methoxyethyl) (MOE); k = constrained ethyl (cEt); [5mC] = 5-methylcytosine; d = 2'-deoxy (DNA)
attributeMeasured: % inhibition (%)

substance	measuredTarget	unitText	observedResult
548438 (antisense e[5mC]*eT*kA*dT*dA*dT*d[5mC]*dA*d[5mC]*dT*dG*dT*dA*k[5mC]*k[5mC]*eT) [compound 548438]	human PKK mRNA	%	38
548399 (eA*eG*kT*d[5mC]*d[5mC]*dT*dA*d[5mC]*dA*dA*dT*dT*dA*k[5mC]*k[5mC]*eA; antisense) [compound 548399]	human PKK mRNA	%	11
548432 (antisense eA*e[5mC]*kT*dG*dT*dA*d[5mC]*d[5mC]*dT*dA*dT*dA*dA*k[5mC]*kT*e[5mC]) [compound 548432]	human PKK mRNA	%	43
